System: Streptococcus pneumoniae-induced pulmonary fibrosis model
Experiment: Streptococcus pneumoniae-induced pulmonary fibrosis model
Type: in vivo, C57BL/6 mice
Conditions: Streptococcus pneumoniae + bleomycin; blood, Day 15; 120 mg/kg/d intragastric, 3 times every day, 14 days, from one week after model
resultType: Leucocyte

Write down Leucocyte measured for item COC(=O)c1ccc2c(c1)NC(=O)/C2=C(\Nc1ccc(N(C)C(=O)CN2CCN(C)CC2)cc1)c1ccccc1 [Nintedanib, reference compound]
98.31 10^9/L

Using known records, supply Leucocyte for `CCOc1ncnc2c1ncn2C(C)C`
6.68 10^9/L

Report Leucocyte, nothing else, for this compound: `CC(C)Oc1ncnc2[nH]cnc12`
5.52 10^9/L

Please indicate Leucocyte recorded for O=c1[nH]cnc2[nH]cnc12 [Hypoxanthine analogue A, reference compound]
155.12 10^9/L

Identify measured Leucocyte associated with `CC(C)Oc1ncnc2c1ncn2C(C)C`
5.62 10^9/L

----------
Tested on: bleomycin-induced pulmonary fibrosis model
Assay: Advanced pulmonary fibrosis: bleomycin-induced model, dosing from three weeks after modelling
Type: in vivo, C57BL/6 mice
Conditions: advanced pulmonary fibrosis; lung tissue HE staining; 120 mg/kg/d intragastric, 14 days, from three weeks after model
resultType: Ashcroft scores
Please reply with the value in numeric form only.

Supply measured Ashcroft scores of COC(=O)c1ccc2c(c1)NC(=O)/C2=C(\Nc1ccc(N(C)C(=O)CN2CCN(C)CC2)cc1)c1ccccc1 [Nintedanib, reference compound] in your reply.
4.13

Tell me Ashcroft scores reported for `CC(C)Oc1ncnc2ncn(C(C)C)c12`
1.24

Please supply the value of reported Ashcroft scores for the item `CCOc1ncnc2c1ncn2C(C)C`
1.21

Tell us which Ashcroft scores value is on record for `CC(=O)Oc1ncnc2c1ncn2C(C)C`
1.07

Give a short answer stating reported Ashcroft scores for `CCCOc1ncnc2c1ncn2C(C)C` .
1.11

----------
Test system: bleomycin-induced pulmonary fibrosis model
Assay: Comparison with comparative drugs: bleomycin-induced model, hydroxyproline and TGF-β
Assay type: in vivo, C57BL/6 mice
Details: 120 mg/kg/d intragastric, twice every day, 14 days, from two weeks after model; Day 15
resultType: TGF-β in bronchoalveolar lavage fluids (µg/L)
Supply the numeric figure in µg/L, leaving out any unit text.

For the compound O=c1[nH]cnc2[nH]cnc12 [Hypoxanthine analogue A, reference compound] , give its reported TGF-β in bronchoalveolar lavage fluids.
9.23

In one line, give reported TGF-β in bronchoalveolar lavage fluids of the entry `CC(C)n1cnc2[nH]cnc2c1=S` .
6.51

Report TGF-β in bronchoalveolar lavage fluids for CC(C)Oc1ncnc2c1ncn2C [Hypoxanthine analogue B, reference compound]
8.95

Tell me TGF-β in bronchoalveolar lavage fluids reported for `CC(C)n1cnc2[nH]cnc2c1=O`
6.21

Please report the measured TGF-β in bronchoalveolar lavage fluids for COc1ncnc2c1ncn2C(C)C [Hypoxanthine analogue C, reference compound]
7.42

In one line, give reported TGF-β in bronchoalveolar lavage fluids of the entry `CC(C)Oc1ncnc2[nH]cnc12` .
4.05

Please give the documented TGF-β in bronchoalveolar lavage fluids of `CC(C)n1cnc2c(=N)[nH]cnc21`
6.38

Give the reported TGF-β in bronchoalveolar lavage fluids for this compound. COC(=O)c1ccc2c(c1)NC(=O)/C2=C(\Nc1ccc(N(C)C(=O)CN2CCN(C)CC2)cc1)c1ccccc1 [Nintedanib, reference compound]
7.11

Answer with the recorded TGF-β in bronchoalveolar lavage fluids of `CC(=O)Oc1ncnc2c1ncn2C(C)C` only.
4.02

Retrieve TGF-β in bronchoalveolar lavage fluids measured for `CC(C)n1cnc2c(=S)[nH]cnc21` and print it.
6.84

----------
System: coronavirus-induced pulmonary fibrosis model (HcoV-OC43)
Assay: Coronavirus-induced pulmonary fibrosis model
Type: in vivo, C57BL/6 mice
Details: serum; HcoV-OC43 + bleomycin; 120 mg/kg/d intragastric, 14 days, from two weeks after model
For each of the compounds below, state its IL-1β.
Write the answer as a number in pg/mL, unit excluded.

Dear colleague, please send me the reported IL-1β for CC(C)Oc1ncnc2c1ncn2C [Hypoxanthine analogue B, reference compound] when you can.
560.6

Identify measured IL-1β associated with COC(=O)c1ccc2c(c1)NC(=O)/C2=C(\Nc1ccc(N(C)C(=O)CN2CCN(C)CC2)cc1)c1ccccc1 [Nintedanib, reference compound]
525.3

Report IL-1β for `CC(C)Oc1ncnc2nc[nH]c12`
37.1

Quote IL-1β reported for O=c1[nH]cnc2[nH]cnc12 [Hypoxanthine analogue A, reference compound] please.
688.8

----------
Tested on: influenza A virus-induced pulmonary fibrosis model (FM1 strain of influenza A (H1N1) virus)
Assay: Influenza A virus-induced pulmonary fibrosis model
Type: in vivo, C57BL/6 mice
Conditions: serum; influenza A (H1N1) FM1 + bleomycin; 120 mg/kg/d intragastric, 14 days, from two weeks after model
resultType: NF-κB (pg/mL)
Field format: number, assumed pg/mL, no unit text.

Please list NF-κB recorded for the compound CC(C)Oc1ncnc2nc[nH]c12 [Compound 5]
27.7

Provide only the value of recorded NF-κB for CC(C)n1cnc2nc[nH]c(=O)c21 [Compound 6]
27.8

Give the value of NF-κB reported for the following: COC(=O)c1ccc2c(c1)NC(=O)/C2=C(\Nc1ccc(N(C)C(=O)CN2CCN(C)CC2)cc1)c1ccccc1 [Nintedanib, reference compound]
625.2

Return the recorded NF-κB value; entry: CC(C)Oc1ncnc2c1N(C(C)C)CN2C(C)C [Compound 10]
27.7

Let me know recorded NF-κB for CC(C)Oc1ncnc2ncn(C(C)C)c12 [Compound 4] , thanks.
27.4

----------
Test system: bleomycin-induced pulmonary fibrosis model
Experiment: Comparison with comparative drugs: bleomycin-induced model, hydroxyproline and TGF-β
Format: in vivo, C57BL/6 mice
Details: 120 mg/kg/d intragastric, twice every day, 14 days, from two weeks after model; Day 15
resultType: Hydroxyproline in lung tissues (µg/mg)
Number in µg/mg, nothing else.

Tell us which Hydroxyproline in lung tissues value is on record for CC(=O)Oc1ncnc2c1ncn2C(C)C [Compound 11]
1.43

Specify measured Hydroxyproline in lung tissues for CC(C)Oc1ncnc2c1N(C(C)C)CN2C(C)C [Compound 10] .
1.37

In one line, give reported Hydroxyproline in lung tissues of the entry CC(C)Oc1ncnc2[nH]cnc12 [Compound 1] .
1.45

Tell me its Hydroxyproline in lung tissues given CC(C)n1cnc2[nH]cnc2c1=S [Compound E-5] as the entry.
2.15

Look up Hydroxyproline in lung tissues of CC(C)Oc1ncnc2c1ncn2C [Hypoxanthine analogue B, reference compound] and report it.
2.97

Please report Hydroxyproline in lung tissues for the following molecule: O=c1[nH]cnc2[nH]cnc12 [Hypoxanthine analogue A, reference compound]
2.69

Quickly give me recorded Hydroxyproline in lung tissues for CCC(=O)Oc1ncnc2c1ncn2C(C)C [Compound 12]
1.41

Item CC(C)n1cnc2[nH]cnc2c1=N [Compound E-8] : provide Hydroxyproline in lung tissues
2.03

Quote Hydroxyproline in lung tissues reported for CC(C)n1cnc2c(ncn2C(C)C)c1=O [Compound E-3] please.
2.15

Return Hydroxyproline in lung tissues for the following molecule: COc1ncnc2c1ncn2C(C)C [Hypoxanthine analogue C, reference compound]
2.85

Annotate the molecule COc1ncnc2c1ncn2C(C)C [Compound 7] with its measured Hydroxyproline in lung tissues.
1.42

State, in one line, measured Hydroxyproline in lung tissues of CC(C)n1cnc2c(ncn2C(C)C)c1=S [Hypoxanthine analogue D]
2.15

Determine its reported Hydroxyproline in lung tissues: CC(C)n1cnc2c(=N)[nH]cnc21 [Compound E-7]
1.99

Return Hydroxyproline in lung tissues (reported value) for this molecule: CCCOc1ncnc2c1ncn2C(C)C [Compound 9]
1.41

Return Hydroxyproline in lung tissues for the following molecule: CC(C)n1cnc2nc[nH]c(=O)c21 [Compound 6]
1.46

Respond only with Hydroxyproline in lung tissues recorded for CCOc1ncnc2c1ncn2C(C)C [Compound 8]
1.47

Identify Hydroxyproline in lung tissues associated with the molecule CC(C)n1cnc2c(=O)[nH]cnc21 [Compound E-1]
2.18

Give the measured Hydroxyproline in lung tissues for CC(C)Oc1ncnc2c1ncn2C(C)C [Compound 3]
1.31

Report Hydroxyproline in lung tissues, nothing else, for this molecule: COC(=O)c1ccc2c(c1)NC(=O)/C2=C(\Nc1ccc(N(C)C(=O)CN2CCN(C)CC2)cc1)c1ccccc1 [Nintedanib, reference compound]
2.36

Report measured Hydroxyproline in lung tissues; entry is CC(C)Oc1ncnc2ncn(C(C)C)c12 [Compound 4]
1.29

Check the records and state Hydroxyproline in lung tissues for CC(C)n1cnc2c(=O)n(C)cnc21 [Compound E-6]
2.35

Return Hydroxyproline in lung tissues for the following molecule: CC(C)n1cnc2c(=S)[nH]cnc21 [Compound E-4]
1.98

----------
System: influenza A virus-induced pulmonary fibrosis model (FM1 strain of influenza A (H1N1) virus)
Experiment: Influenza A virus-induced pulmonary fibrosis model
Format: in vivo, C57BL/6 mice
Conditions: serum; influenza A (H1N1) FM1 + bleomycin; 120 mg/kg/d intragastric, 14 days, from two weeks after model
resultType: TNF-α
Reply with the number, then its unit.

Let me know recorded TNF-α for `CC(C)Oc1ncnc2nc[nH]c12` , thanks.
90.2 pg/mL

Using the record for O=c1[nH]cnc2[nH]cnc12 [Hypoxanthine analogue A, reference compound] , state its measured TNF-α.
339.4 pg/mL

Please list TNF-α recorded for the compound `CC(=O)Oc1ncnc2c1ncn2C(C)C`
88.7 pg/mL

Give the measured TNF-α for `CC(C)n1cnc2c(=O)[nH]cnc21`
87.3 pg/mL

Name the recorded TNF-α of the item CC(C)Oc1ncnc2c1ncn2C [Hypoxanthine analogue B, reference compound] in your answer.
341.6 pg/mL
